B1: Hairpin Ribozyme (parent)
chain: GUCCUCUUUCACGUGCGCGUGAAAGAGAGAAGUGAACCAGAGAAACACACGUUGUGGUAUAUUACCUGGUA

# Variants of: B1
# Assay Method Text: self-cleavage, relative activity (ratio to wild type); higher = more cleavage; co-transcriptional
Value Kind: self-cleavage
Returns: the value as a bare number; no unit string appended.

U33G A36G :: 0.0878

## Input Please indicate self-cleavage recorded for G32U A45C
## Output 0.153

## Input Please indicate self-cleavage recorded for U70A A71U
## Output 1.63
